The measured values listed here are drawn from PubChem BioAssay (NCI).

Test system: HL-60(TB) leukemia
Experiment: NCI-60 one-dose screen, 48 h
Conditions: 10 µM unless noted
The panel holds about 83,000 compounds, 20% with a hit somewhere; the sample as a whole holds those more often. Activity calls are given as the source filed them. Rule for the calls: active = growth percent below 10; inactive = the rest.
Log the outcome using a class from true = active, false = inactive

MOLECULE	ASSIGNED LABEL
COC(=O)[C@H]1Cc2c([nH]c3ccccc23)[C@H](c2ccc3c(c2)OCO3)N1	false
Nc1nc2ccc(CNc3ccc(C(=O)NC(CC(=O)O)C(=O)O)cc3)cc2c(=O)[nH]1 (stereo not drawn)	true
CC[C@H](Nc1nc(N)nc(C2CC2)c1C#N)c1nc2cccc(NCc3ccc(C(=O)NO)cc3)c2c(=O)n1-c1ccccc1	true
Clc1cccc(Cl)c1CSc1nc2ccccc2n2cccc12	false
COc1ccc(/C=C/C(=O)c2ccc(NC(=O)c3cc4cc5ccccc5nc4s3)cc2)cc1OC	false
O=C1Nc2ccccc2/C1=N/c1nc(-c2ccc(Cl)cc2)cs1	true
CC(=O)Oc1ccc(Cl)cc1CN(C(C)=O)C1CCCCC1	false

Moving on to the next molecule.
Enquiry: // param item: `CCc1cccc(C)c1NC(=O)c1sc2nc3c(cc2c1N)C(=O)CCC3` ; yields the recorded call
Return: true

====

System: NCI/ADR-RES ovarian
Assay: NCI-60 one-dose screen, 48 h
Details: 10 µM unless noted
This is part of a sample that, as a whole, favours compounds with a hit. Of some 83,000 tested, about 20% had one in any assay. The source made the active and inactive calls. The calls were made as follows: active = growth percent below 10; inactive = the rest.
Entry note: the call must match one of active, inactive

// below: answered molecules
MOLECULE	ASSIGNED LABEL
CC(C)Nc1ccc(Nc2ccccc2)cc1	inactive
COc1c(O)c2c3c(c1OC)-c1ccccc1CC3N(C)CC2 (stereo unspecified)	inactive
CCOc1ccc(C(O)CN(C)Cc2ccccc2)cc1Cl (stereo unspecified)	inactive
CCN(CC)CCOc1c(C(C)C)cccc1C(C)C	inactive
CCOc1c(Cl)cc(CNC(C)C(O)c2ccccc2)cc1OC (stereo unspecified)	inactive
O=S(=O)(c1ccc(Cl)cc1)C(Cl)(Cl)Cl	inactive
CC1(C)N=C(N)N=C(N)N1c1ccc(CCCCc2ccc(Cl)cc2S(=O)(=O)F)c(Cl)c1	inactive
CC(=O)Oc1ccc(Cl)cc1	inactive
COc1ccc(NP2(=O)OCC(C)(N)CO2)cc1 (stereo unspecified)	inactive
CC(C)[C@]12O[C@H]1[C@@H]1O[C@]13[C@]1(O[C@H]1C[C@H]1C4=C(CC[C@@]13C)C(=O)OC4)[C@@H]2OC(=O)OC(C)(C)C	active

Enquiry: Outcome logged for `COc1ccc(OC)c(/C=C(/C)[N+](=O)[O-])c1` in this assay:
Return: inactive

Enquiry: Note, next up: O=C(O)CC(Br)C(=O)CBr (stereo unspecified)
Return: inactive

Enquiry: Repeat with CC[C@@]1(C2O[C@@H](C3O[C@@](O)(CC)[C@H](C)C[C@@H]3C)C[C@@H]2C)CC[C@H]([C@]2(C)CCC3(C[C@H](O)[C@@H](C)[C@@H]([C@H](C)[C@@H](OC)[C@H](C)C(=O)O)O3)O2)O1 (stereo partly specified)
Return: inactive

====

Test system: HL-60(TB) leukemia
Experiment: NCI-60 one-dose screen, 48 h (100 = growth as untreated, 0 = no growth, -100 = all killed)
Conditions: 10 µM unless noted
About 83,000 compounds went through this panel and 20% of them were active in at least one assay; those are over-represented in the sample as a whole.
// classify(record): look up growth in ranges b0 = under 30%, b1 = from 30% up to 90%, b2 = 90% and over

COMPOUND	TARGET ENTITY	ASSIGNED LABEL
CN(C)CCOC(=O)Nc1ccccc1Cl	HL-60(TB) leukemia	b2
Cc1ccc(-c2csc(NC(=O)CCCCl)n2)cc1	HL-60(TB) leukemia	b2
Nc1nc(Nc2ccccc2)c2ncn(Cc3ccc4c(c3)OCO4)c2n1	HL-60(TB) leukemia	b0
CCOC(=O)/C=C1\S/C(=N\Nc2cc(=O)[nH]c3ccccc23)N(c2ccccc2)C1=O	HL-60(TB) leukemia	b2
CCCCCCCC/C=C\CCCCCCCCOc1ccccc1CC(=O)NCC[N+](C)(C)C	HL-60(TB) leukemia	b1

For the next question, use this compound.
Enquiry: Classify this compound: `CNC(=O)c1cc(Oc2ccc3nc(NC(=O)Nc4ccc(Cl)c(C(F)(F)F)c4)sc3c2)ccn1`
Return: b2
